Assignment: determine reported DC50 for the given compounds.
# TARGET OF ASSAY: STAT3 (Homo sapiens)
# Sequence (P40763 whole entry): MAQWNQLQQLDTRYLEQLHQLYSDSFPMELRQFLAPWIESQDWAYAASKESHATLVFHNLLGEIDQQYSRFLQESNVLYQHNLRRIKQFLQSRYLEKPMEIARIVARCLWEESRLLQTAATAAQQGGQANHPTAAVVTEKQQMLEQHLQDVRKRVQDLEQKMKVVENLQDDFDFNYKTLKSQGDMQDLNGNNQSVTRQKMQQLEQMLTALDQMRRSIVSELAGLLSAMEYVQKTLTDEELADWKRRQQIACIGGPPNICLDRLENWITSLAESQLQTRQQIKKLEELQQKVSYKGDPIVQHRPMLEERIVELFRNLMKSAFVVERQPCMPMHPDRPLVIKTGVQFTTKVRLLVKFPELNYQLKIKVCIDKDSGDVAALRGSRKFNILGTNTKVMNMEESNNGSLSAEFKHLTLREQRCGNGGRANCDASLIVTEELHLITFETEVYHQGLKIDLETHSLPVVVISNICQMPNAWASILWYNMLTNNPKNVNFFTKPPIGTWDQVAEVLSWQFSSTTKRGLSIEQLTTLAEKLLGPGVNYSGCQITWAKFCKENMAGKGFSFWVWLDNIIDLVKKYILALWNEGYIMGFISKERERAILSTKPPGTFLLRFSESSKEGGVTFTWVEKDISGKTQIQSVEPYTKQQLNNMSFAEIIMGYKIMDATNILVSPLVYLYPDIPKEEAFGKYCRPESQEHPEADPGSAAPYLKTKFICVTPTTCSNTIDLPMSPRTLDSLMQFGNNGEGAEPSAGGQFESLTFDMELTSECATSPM
# PROCEDURE SUMMARY: STAT3 HiBiT degradation assay in transfected A549 cells
# Type: cell-based
# Set-up: expressed in transfected cells; host or cells: A549
# COND: A549, 24 h; read-out: STAT3 HiBiT A549 degradation 24 h: Average external-Abs DC50
# Method: Compound preparation and Cell seeding: The transfected A549 cells were harvested from dish into cell culture medium and cell numbers counted. […] Detection: Plates were removed from incubators and equilibrated at room temperature for 15 minutes. […] 30 μL of Nano-Glo Hibit Lytic Detection reagent was added into each well to be detected. The plates were held at room temperature for 10 min followed by reading on EnSpire. […]

Fill in: STAT3 (Homo sapiens) DC50 for Cn1c(=O)n(C2CCC(=O)NC2=O)c2ccc(C[C@H]3CC[C@@H](CC(=O)N4CC[C@H]5CC[C@@H](C(=O)N[C@@H](CCC(N)=O)C(=O)NC(c6ccccc6)c6ccccc6)N5C(=O)[C@@H](NC(=O)c5cc6cc(C(=O)P(=O)(O)O)ccc6[nH]5)C4)CC3)cc21 (some centres unmarked) [Compound I-174] = 10 to 100 nM

Fill in: STAT3 (Homo sapiens) DC50 for Cc1ccc(OC[C@H](CCC(N)=O)NC(=O)[C@@H]2Cc3cccc4c3N2C(=O)[C@@H](NC(=O)c2cc3cc(C(=O)P(=O)(O)O)ccc3[nH]2)CC4)cc1CCCCCC(=O)N[C@H](C(=O)N1C[C@H](O)C[C@H]1C(=O)N[C@@H](C)c1ccc(-c2scnc2C)cc1)C(C)(C)C [Compound I-212] = 10 to 100 nM

Fill in: STAT3 (Homo sapiens) DC50 for Cc1ncsc1-c1ccc([C@H](C)NC(=O)[C@@H]2C[C@@H](O)CN2C(=O)[C@@H](NC(=O)CCCCc2cccc(OC[C@H](CCC(N)=O)NC(=O)[C@@H]3Cc4cccc5c4N3C(=O)[C@@H](NC(=O)c3cc4cc(C(=O)P(=O)(O)O)ccc4[nH]3)CC5)c2)C(C)(C)C)cc1 [Compound I-211] = 10 to 100 nM

Fill in: STAT3 (Homo sapiens) DC50 for Cc1ncsc1-c1ccc([C@H](C)NC(=O)[C@@H]2C[C@@H](O)CN2C(=O)[C@@H](NC(=O)CCCc2cccc(NC(=O)[C@H](CCC(N)=O)NC(=O)[C@@H]3Cc4cccc5c4N3C(=O)[C@@H](NC(=O)c3cc4cc(C(=O)P(=O)(O)O)ccc4[nH]3)CC5)c2)C(C)(C)C)cc1 [Compound I-248] = 10 to 100 nM

Fill in: STAT3 (Homo sapiens) DC50 for Cc1ncsc1-c1ccc([C@H](C)NC(=O)[C@@H]2C[C@@H](O)CN2C(=O)[C@@H](NC(=O)CCCCCc2cc(Cl)cc(OC[C@@H](NC(=O)[C@@H]3Cc4cccc5c4N3C(=O)[C@@H](NC(=O)c3cc4cc(C(=O)P(=O)(O)O)ccc4[nH]3)CC5)C(N)=O)c2)C(C)(C)C)cc1 [Compound I-204] = 10 to 100 nM

Fill in: STAT3 (Homo sapiens) DC50 for Cn1c(=O)n(C2CCC(=O)NC2=O)c2ccc(CCCCCCCc3cc4c5c(c3)C[C@@H](C(=O)N[C@@H](CCC(N)=O)C(=O)NC(c3ccccc3)c3ccccc3)N5C(=O)[C@@H](NC(=O)c3cc5cc(C(=O)P(=O)(O)O)ccc5[nH]3)CC4)cc21 (some centres unmarked) [Compound I-182] = 100 to 1000 nM

Fill in: STAT3 (Homo sapiens) DC50 for Cc1ncsc1-c1ccc([C@H](C)NC(=O)[C@@H]2C[C@@H](O)CN2C(=O)[C@@H](NC(=O)CCCc2cccc(OC[C@H](CCC(N)=O)NC(=O)[C@@H]3CCCN3C(=O)[C@H](CC(C)C)NC(=O)c3cc4cc(C(=O)P(=O)(O)O)ccc4[nH]3)c2Cl)C(C)(C)C)cc1 [Compound I-240] = 10 to 100 nM

Fill in: STAT3 (Homo sapiens) DC50 for Cn1c(=O)n(C2CCC(=O)NC2=O)c2ccc(C3CC(CCCCC(=O)N4CC[C@H]5CC[C@@H](C(=O)N[C@@H](CCC(N)=O)C(=O)NC(c6ccccc6)c6ccccc6)N5C(=O)[C@@H](NC(=O)c5cc6cc(C(=O)P(=O)(O)O)ccc6[nH]5)C4)C3)cc21 (some centres unmarked) [Compound I-208] = 100 to 1000 nM

Fill in: STAT3 (Homo sapiens) DC50 for Cc1ncsc1-c1ccc([C@H](C)NC(=O)[C@@H]2C[C@@H](O)CN2C(=O)[C@@H](NC(=O)CCCCCc2ccnc([C@H](CCC(N)=O)NC(=O)[C@@H]3Cc4cccc5c4N3C(=O)[C@@H](NC(=O)c3cc4cc(C(=O)P(=O)(O)O)ccc4[nH]3)CC5)c2)C(C)(C)C)cc1 [Compound I-268] = 100 to 1000 nM

Fill in: STAT3 (Homo sapiens) DC50 for Cc1ncsc1-c1ccc([C@H](C)NC(=O)[C@@H]2C[C@@H](O)CN2C(=O)[C@@H](NC(=O)CCCCCc2ccc([C@H](CCC(N)=O)NC(=O)[C@@H]3Cc4cccc5c4N3C(=O)[C@@H](NC(=O)c3cc4cc(C(=O)P(=O)(O)O)ccc4[nH]3)CC5)nc2)C(C)(C)C)cc1 [Compound I-238] = 100 to 1000 nM

Fill in: STAT3 (Homo sapiens) DC50 for Cn1c(=O)n(C2CCC(=O)NC2=O)c2ccc(CCCCCCc3cc4c5c(c3)C[C@@H](C(=O)N[C@@H](CCC(N)=O)c3ccccn3)N5C(=O)[C@@H](NC(=O)c3cc5cc(C(=O)P(=O)(O)O)ccc5[nH]3)CC4)cc21 (some centres unmarked) [Compound I-277] = 10 to 100 nM

Fill in: STAT3 (Homo sapiens) DC50 for CC(=O)N1CC[C@H]2CC[C@@H](C(=O)N[C@@H](CCC(=O)O)COc3cc(F)cc(CCCC(=O)N[C@H](C(=O)N4C[C@H](O)C[C@H]4C(=O)N[C@@H](C)c4ccc(-c5scnc5C)cc4)C(C)(C)C)c3Cl)N2C(=O)[C@@H](NC(=O)c2cc3cc(C(=O)P(=O)(O)O)ccc3[nH]2)C1 [Compound I-289] = < 10 nM

Fill in: STAT3 (Homo sapiens) DC50 for Cc1ncsc1-c1ccc(CNC(=O)[C@@H]2C[C@@H](O)CN2C(=O)[C@@H](NC(=O)CCCCCc2cccc(CNC(=O)[C@H](CCC(N)=O)NC(=O)[C@@H]3Cc4cccc5c4N3C(=O)[C@@H](NC(=O)c3cc4cc(C(=O)P(=O)(O)O)ccc4[nH]3)CC5)c2)C(C)(C)C)cc1 [Compound I-222] = > 1000 nM

Fill in: STAT3 (Homo sapiens) DC50 for Cc1ncsc1-c1ccc([C@H](C)NC(=O)[C@@H]2C[C@@H](O)CN2C(=O)[C@@H](NC(=O)CCCCCc2ccc(F)c(OC[C@H](CCC(N)=O)NC(=O)[C@@H]3Cc4cccc5c4N3C(=O)[C@@H](NC(=O)c3cc4cc(C(=O)P(=O)(O)O)ccc4[nH]3)CC5)c2)C(C)(C)C)cc1 [Compound I-207] = 100 to 1000 nM
